Readings of Ratio IC50 for the listed compounds
Tested on: HCT-116
Experiment: Selectivity index, ratio of IC50 for NQO1-deficient mouse L929 cells to IC50 for human HCT116 cells expressing NQO1
Respond numerically, and do not add a unit to the figure.

1. O=C1C=C(NCc2cn(C[Se]c3ccccc3)nn2)C(=O)c2ccccc21 :: 2.2
2. CC1(C)OC2=C(C(=O)C(=O)c3ccccc32)C1Nc1cccc(-c2cn(C[Se]c3ccccc3)nn2)c1 (configuration not stated) :: 6.7
3. O=C1C(Br)=C(NCc2cn(C[Se]c3ccccc3)nn2)C(=O)c2ccccc21 :: 1.9

Exercise: Notebook entry, HCT-116 assay: Ratio IC50 of [N-]=[N+]=NCC1CC2=C(O1)C(=O)c1ccccc1C2=O (configuration not stated) = ?
Solution: 8.9

Exercise: Notebook entry, HCT-116 assay: Ratio IC50 of C#Cc1cccc(NC2C3=C(OC2(C)C)c2ccccc2C(=O)C3=O)c1 (configuration not stated) = ?
Solution: 1.68

Exercise: Notebook entry, HCT-116 assay: Ratio IC50 of CC1(C)OC2=C(C(=O)C(=O)c3ccccc32)[C@@H](n2cc(C[Se]c3ccccc3)nn2)[C@@H]1Br = ?
Solution: 1.5

Exercise: Notebook entry, HCT-116 assay: Ratio IC50 of CC1(C)OC2=C(C(=O)c3ccccc3C2=O)C1Nc1cccc(-c2cn(C[Se]c3ccccc3)nn2)c1 (configuration not stated) = ?
Solution: 2.6

====

Test system: HL-60
Assay: Selectivity index, ratio of IC50 for NQO1-deficient human PBMC to IC50 for NQO1-deficient human HL60 cells
quantity_name: Ratio IC50

See these solved cases before continuing.
1. CC1(C)OC2=C(C(=O)C(=O)c3ccccc32)C1Nc1cccc(-c2cn(C[Se]c3ccccc3)nn2)c1 (stereo unspecified) :: 19.8
2. CC1(C)OC2=C(C(=O)c3ccccc3C2=O)C1Nc1cccc(-c2cn(C[Se]c3ccccc3)nn2)c1 (stereo unspecified) :: 3
3. CC1(C)CC(Nc2cccc(-c3cn(C[Se]c4ccccc4)nn3)c2)C2=C(O1)C(=O)c1ccccc1C2=O (stereo unspecified) :: 2
4. CC1(C)OC2=C(C(=O)C(=O)c3ccccc32)[C@@H](n2cc(C[Se]c3ccccc3)nn2)[C@@H]1Br :: 1.5
5. O=C1C(=O)c2ccccc2C2=C1CC(Cn1cc(C[Se]c3ccccc3)nn1)O2 (stereo unspecified) :: 10

Exercise: GET /values?readout=Ratio IC50&item= CC1(C)OC2=C(C(=O)C(=O)c3ccccc32)C(N=[N+]=[N-])[C@@H]1Br (stereo partly specified)
Solution: 2.5

====

Assay: Cytotoxicity against human OVCAR8 cells overexpressing NQO1 assessed as reduction in cell viability after 72 hrs by MTT assay
Type: functional, cell-based
Conditions: OVCAR-8, 72 h
Readings of log10(IC50) for the listed molecules
Please keep in mind that the values are log10 of IC50 expressed in µM.

Exercise: GET /values?readout=log10(IC50)&item= CC1(C)OC2=C(C(=O)C(=O)c3ccccc32)[C@@H](n2cc(C[Se]c3ccccc3)nn2)[C@@H]1Br
Solution: -0.04

Exercise: GET /values?readout=log10(IC50)&item= C#Cc1cccc(NC2C3=C(OC2(C)C)C(=O)c2ccccc2C3=O)c1 (stereo not drawn)
Solution: 0.85

Exercise: GET /values?readout=log10(IC50)&item= CC1(C)CC(n2cc(C[Se]c3ccccc3)nn2)C2=C(O1)C(=O)c1ccccc1C2=O (stereo not drawn)
Solution: 0.41

Exercise: GET /values?readout=log10(IC50)&item= COc1cccc2c1C(=O)c1c(O)c3c(c(O)c1C2=O)C[C@@](O)(C(=O)CO)C[C@@H]3O[C@H]1C[C@H](N)[C@H](O)[C@H](C)O1
Solution: -0.39

Exercise: GET /values?readout=log10(IC50)&item= O=C1C(=O)c2ccccc2C2=C1CC(Cn1cc(C[Se]c3ccccc3)nn1)O2 (stereo not drawn)
Solution: -1.15

Exercise: GET /values?readout=log10(IC50)&item= CC1(C)CC(Nc2cccc(-c3cn(C[Se]c4ccccc4)nn3)c2)C2=C(O1)C(=O)c1ccccc1C2=O (stereo not drawn)
Solution: 0.49
